test: A CellTox Green Cytotoxicity Assay to monitor cytotoxicity in HEK293 cells - 24 hour (AID 1224875); details: CellTox Green fluorescence; series mostly up to 76.8 µM; further: nearly all actives have a fitted effect of over 45% in size
Results filed as inconclusive are left out. Calls of active or inactive are those of the source. The call rests on the fitted dose curve; in most records, active means well fitted activation curve with a large enough effect in the repeat runs; inconclusive means weak or mixed curves; inactive means flat fitted curve, though single readings scatter.
Choose one outcome from this list and give only that: active, inactive

Below, 3 compounds whose answers are already recorded.
compound=CN1CC(=O)N2[C@H](c3ccc4c(c3)OCO4)c3[nH]c4ccccc4c3C[C@@H]2C1=O group_label=inactive
compound=CCN(CC)CCNC(=O)COc1ccc(OC)cc1 group_label=inactive
compound=O=C1c2ccccc2C(=O)C1c1ccc(Br)cc1 group_label=inactive

# input Which outcome was assigned to CNC(=O)c1cnn(-c2nc(N)c3ncn([C@@H]4O[C@H](CO)[C@@H](O)[C@H]4O)c3n2)c1 in this test?
# output inactive

# input What did the test return for Cc1ccc(C(C)(C)O)cc1 ?
# output inactive

# input What classification did O=c1[nH]ncc2ccccc12 end up with in this test?
# output inactive

# input Test call for this compound, please: CC(C)=CCC/C(C)=C/CC/C(C)=C/C(=O)OCC(=O)[C@@]1(O)CC[C@H]2[C@@H]3CCC4=CC(=O)C=C[C@]4(C)[C@H]3[C@@H](O)C[C@@]21C
# output inactive

# input Please indicate how the test categorized Cc1ccc(CO)cc1 .
# output inactive

# input Each compound tested received a call. Report the one for CCOC(=O)OC(C)OC(=O)[C@@H]1N2C(=O)[C@@H](NC(=O)[C@H](N)c3ccccc3)[C@H]2SC1(C)C (stereo not given in full) .
# output inactive

# input Field: outcome | Entry: CC(=O)c1ccc([N+](=O)[O-])cc1
# output inactive

# input So what was the verdict on CCC1CO1 (stereo not given) in this test?
# output inactive

###

biological target: Peroxisome proliferator-activated receptor gamma (Homo sapiens) (UniProt P37231); test: qHTS assay to identify small molecule antagonists of the peroxisome proliferator-activated receptor gamma (PPARg) signaling pathway (AID 743191); details: HEK293H PPARg-UAS-bla, beta-lactamase ratio, antagonist, 17 h; series mostly up to 62.6 µM; further: nearly all actives have a fitted effect of over 30% in size; further: potency means the concentration at half of the fitted maximal effect
Sequence (P37231 whole entry, looked up): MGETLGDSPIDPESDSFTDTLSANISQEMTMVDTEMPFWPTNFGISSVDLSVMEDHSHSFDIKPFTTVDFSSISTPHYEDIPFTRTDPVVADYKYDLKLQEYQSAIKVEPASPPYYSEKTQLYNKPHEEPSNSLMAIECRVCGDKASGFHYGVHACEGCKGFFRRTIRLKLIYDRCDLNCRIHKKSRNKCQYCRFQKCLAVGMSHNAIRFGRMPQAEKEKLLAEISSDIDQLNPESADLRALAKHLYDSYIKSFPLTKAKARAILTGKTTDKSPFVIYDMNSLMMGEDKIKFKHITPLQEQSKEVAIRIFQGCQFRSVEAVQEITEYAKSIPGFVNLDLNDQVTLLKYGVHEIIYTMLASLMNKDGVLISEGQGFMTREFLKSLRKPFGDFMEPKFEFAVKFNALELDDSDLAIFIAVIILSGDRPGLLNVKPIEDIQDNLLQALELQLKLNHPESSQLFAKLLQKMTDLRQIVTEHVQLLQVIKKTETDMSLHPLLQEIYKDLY
Inconclusive results are not listed. Activity calls are given as the source filed them. Calls come from the whole dose curve.
MEASURE: Potency

molecule=O=C1c2ccccc2C(=O)C1(O)O measure=Potency observed_measurement=inactive
molecule=O=C(OC(=O)c1ccccc1)c1ccccc1 measure=Potency observed_measurement=inactive
molecule=C/C=C(/C(=C/C)c1ccc(O)cc1)c1ccc(O)cc1 measure=Potency observed_measurement="29.8 µM (active)"
molecule=CC(C)Nc1cccnc1N1CCN(C(=O)c2cc3cc(NS(C)(=O)=O)ccc3[nH]2)CC1 measure=Potency observed_measurement=inactive
molecule=CC=C(Cl)Cl measure=Potency observed_measurement=inactive

For the 3 molecules below, give their Potency values.
1. C[C@@H](O)[C@H]1C(=O)N2C(C(=O)O)=C([C@H]3CCCO3)S[C@H]12
2. O=c1[nH]ncc2ccccc12
3. CN1CC(=O)N2[C@H](c3ccc4c(c3)OCO4)c3[nH]c4ccccc4c3C[C@@H]2C1=O

# output
1. inactive
2. inactive
3. inactive

Provide reported Potency for each item, in the same order as listed.
1. NC(=O)c1ccncc1
2. CC(C)=CCC/C(C)=C/CC/C(C)=C/CCC(=O)OC/C=C(\C)CCC=C(C)C
3. Nc1nnc(-c2ccc([N+](=O)[O-])o2)o1
4. CC(C)=CCC1C(=O)N(c2ccccc2)N(c2ccccc2)C1=O

# output
["inactive", "inactive", "inactive", "4.22 µM (active)"]

Look at each molecule and report its Potency.
1. CCOC(=O)/C=C/C(=O)OCC
2. Oc1c(I)cc(I)c2cccnc12
3. Cc1ccc(OC(=O)c2ccccc2O)cc1
4. CCC(C)(C)OC
5. CC(=O)NC1(c2cccc(F)c2)CCN(CC[C@@]2(c3ccc(Cl)c(Cl)c3)CN(c3ccccc3)C(=O)CO2)CC1
6. COc1cc(N)c(Cl)cc1C(=O)NC1CCN(CCCOc2ccc(F)cc2)CC1OC (stereo unspecified)
7. c1csc(SSc2cccs2)c1
8. C=CC(C)(CCC=C(C)C)OC(=O)CC(C)C (stereo unspecified)

# output
1. inactive
2. 18.8 µM (active)
3. inactive
4. inactive
5. 43.8 µM (active)
6. inactive
7. inactive
8. inactive

Batch lookup, Potency per entry.
1. CC(=O)OCC[N+](C)(C)C
2. CCCCOc1ccc(OCCCN2CCOCC2)cc1
3. Cc1cc(O)c(C)c(C)c1O
4. CC[N+](CC)(CCNC(=O)C(=O)NCC[N+](CC)(CC)Cc1ccccc1Cl)Cc1ccccc1Cl
5. FC(F)(F)c1ccccc1Cl
6. c1ccc(C[n+]2cccc3ccccc32)cc1

# output
inactive
inactive
inactive
inactive
inactive
inactive
